From: patent US7834013B2

- Target Or System: GPR40 (Homo sapiens, UniProt O14842)
- Sequence (O14842 whole entry, the tested form may be a part): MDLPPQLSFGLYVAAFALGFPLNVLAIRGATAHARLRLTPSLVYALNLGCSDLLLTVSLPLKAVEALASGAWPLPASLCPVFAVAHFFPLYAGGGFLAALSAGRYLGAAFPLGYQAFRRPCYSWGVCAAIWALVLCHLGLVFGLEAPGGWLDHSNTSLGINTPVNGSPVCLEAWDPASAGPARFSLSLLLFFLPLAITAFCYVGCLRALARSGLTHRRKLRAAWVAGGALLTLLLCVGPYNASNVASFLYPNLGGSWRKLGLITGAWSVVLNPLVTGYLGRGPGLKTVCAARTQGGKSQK
- Assay Name: GPR40 SAR Primary Assay (Elk-1/Gal4-luc+ reporter, luciferase activity)
- Condition Label: stable GPR40 Elk-1/Gal4-luc+ CHO cell line, 5 hours incubation
Observable: pEC50
# pEC50: negative log10 of molar concentration; output just the value

Provide value of pEC50 for this record tested with GPR40 (Homo sapiens, UniProt O14842): Cc1nc(-c2ccc(C(F)(F)F)cc2)sc1CNc1ccc(C2CC2C(=O)O)cc1 (single isomer, unassigned; (-)) [Example 29]
6.50

Provide value of pEC50 for this record tested with GPR40 (Homo sapiens, UniProt O14842): O=C(O)C1CC1c1ccc(NCc2cccc(Oc3ccc(Cl)cc3)c2)cc1 (racemic)
7.80

Provide value of pEC50 for this record tested with GPR40 (Homo sapiens, UniProt O14842): Cc1nc(-c2ccc(C(F)(F)F)cc2)sc1CNc1ccc(C2CC2C(=O)NC(C)C)cc1 (stereo not shown)
8.00

Provide value of pEC50 for this record tested with GPR40 (Homo sapiens, UniProt O14842): COc1ccc(Oc2cccc(CNc3ccc(C4CC4C(=O)O)cc3)c2)cc1 (racemic)
7.70

Provide value of pEC50 for this record tested with GPR40 (Homo sapiens, UniProt O14842): COc1ccc(CNC(=O)[C@@H]2C[C@H]2c2ccc(NCc3cccc(Oc4ccccc4)c3)cc2)cc1 (racemic)
7.50

Provide value of pEC50 for this record tested with GPR40 (Homo sapiens, UniProt O14842): NC(=O)C1CC1c1ccc(NCc2ccc(-c3ccccc3)cc2)cc1 (racemic)
7.70

Provide value of pEC50 for this record tested with GPR40 (Homo sapiens, UniProt O14842): NC(=O)[C@@H]1C[C@H]1c1ccc(NCc2ccc(-c3ccccn3)cc2)cc1 (racemic)
6.60

* * *

- Target Or System: GPR40 (Homo sapiens)
- Construct: expressed in transfected cells
- Assay Name: GPR40 SAR Primary Assay (Elk-1/Gal4-luc+ reporter, luciferase activity)
- Type: cell-based
- Condition Label: stable GPR40 Elk-1/Gal4-luc+ CHO cell line, 5 hours incubation
Counter-ions that a name gives are not always drawn.
Give EC50 for every item shown.
State the answer as a number, implicitly in nM.

Which EC50 is listed for Cc1ccc(Oc2cccc(CNc3ccc([C@H]4C[C@@H]4C(=O)O)cc3)c2)cc1 [Example 34, Trifluoroacetate] ?
7.94

Which EC50 is listed for O=C(NCC1CC1)C1CC1c1ccc(NCc2cccc(Oc3ccccc3)c2)cc1 (stereo not shown) [Example 54] ?
20

Which EC50 is listed for Cc1nc(-c2ccc(C(F)(F)F)cc2)sc1CNc1ccc([C@@H]2C[C@H]2C(N)=O)cc1 (racemic) [Example 43] ?
20

Which EC50 is listed for O=C(O)C1CC1c1ccc(NCc2cccc(Oc3cccc(C(F)(F)F)c3)c2)cc1 (racemic) [Example 9] ?
7.94

Which EC50 is listed for O=C(NCc1ccncc1)[C@@H]1C[C@H]1c1ccc(NCc2cccc(Oc3ccccc3)c2)cc1 (racemic) [Example 47] ?
10

Which EC50 is listed for CC(C)c1nc(-c2ccc(C(F)(F)F)cc2)sc1CNc1ccc([C@@H]2C[C@H]2C(=O)O)cc1 (racemic) [Example 14] ?
15.8

Which EC50 is listed for O=C(O)[C@H]1C[C@@H]1c1ccc(NCc2cccc(Cc3ccccc3)c2)cc1 (racemic) [Example 21, Trifluoroacetate] ?
25.1

* * *

Give EC50 for every item shown.
- Target Or System: GPR40 (Homo sapiens, UniProt O14842)
- Assay Name: GPR40 SAR Primary Assay (Elk-1/Gal4-luc+ reporter, luciferase activity)
- Condition Label: stable GPR40 Elk-1/Gal4-luc+ CHO cell line, 5 hours incubation
Structures can show the parent of a compound that is named as a salt.

Which EC50 is listed for Cc1nc(-c2ccc(C(F)(F)F)cc2)sc1CNc1ccc([C@@H]2C[C@H]2C(=O)NC2CCC2)cc1 (single isomer, unassigned) ?
7.94 nM

Which EC50 is listed for Cc1nc(Oc2ccccc2)sc1CNc1ccc(C2CC2C(=O)O)cc1 (racemic) ?
398 nM

Which EC50 is listed for Cc1nc(-c2ccc(C(F)(F)F)cc2)sc1CNc1ccc([C@@H]2C[C@H]2C(=O)NCc2ccncc2)cc1 (single isomer, unassigned) [Example 38, TFA Salt] ?
5.01 nM

Which EC50 is listed for Cc1nc(-c2ccc(C(F)(F)F)cc2)sc1CNc1ccc(C2CC2C(=O)N[C@@H](C)c2ccccc2)cc1 (stereo partly drawn) ?
50.1 nM

Which EC50 is listed for O=C(O)[C@@H]1C[C@H]1c1ccc(NCc2ccc(-c3ccc(C(F)(F)F)cc3)o2)cc1 (racemic) [Example 18, Trifluoroacetate] ?
251 nM

Which EC50 is listed for O=C(O)C1CC1c1ccc(NCc2cccc(Oc3ccccc3)c2)cc1Cl (single isomer, unassigned; (+)) [Example 30a] ?
398 nM

Which EC50 is listed for O=C(O)[C@@H]1C[C@H]1c1ccc(NCc2cccc(Oc3ccccc3)c2)cc1 (single isomer, unassigned) ?
631 nM

Which EC50 is listed for O=C(O)C1CC1c1cc(F)c(NCc2cccc(Oc3ccccc3)c2)cc1F (single isomer, unassigned; (+)) [Example 31a] ?
501 nM

Which EC50 is listed for O=C(O)[C@H]1C[C@@H]1c1ccc(NCc2cccc(Oc3cc(Cl)cc(Cl)c3)c2)cc1 [Example 32, trifluoroacetate] ?
5.01 nM

Which EC50 is listed for O=C(O)C1CC1c1ccc(NCc2cccc(Oc3ccccc3)c2)cc1 (racemic) [Example 1] ?
12.6 nM

Which EC50 is listed for CC(C)NC(=O)[C@@H]1C[C@H]1c1ccc(NCc2sc(-c3ccc(C(F)(F)F)cc3)nc2C(C)C)cc1 (racemic) ?
15.8 nM

Which EC50 is listed for O=C(O)C1CC1c1ccc(NCc2cccc(OCc3ccccc3)c2)cc1 (racemic) ?
126 nM

* * *

- Target Or System: UniProt:O14842
- Assay Name: GPR40 SAR Primary Assay (Elk-1/Gal4-luc+ reporter, luciferase activity)
- Condition Label: stable GPR40 Elk-1/Gal4-luc+ CHO cell line, 5 hours incubation
Where a name gives a salt, the structure may show the parent alone.
Observable: pEC50
# pEC50: negative log10 of molar concentration; output just the value

Which pEC50 is listed for Nc1ccc(Oc2cccc(CNc3ccc([C@H]4C[C@@H]4C(=O)O)cc3)c2)cc1 (racemic) [Example 24, Trifluoroacetate] ?
6.70

Which pEC50 is listed for Cc1nc(-c2ccc(C(F)(F)F)cc2)sc1CNc1ccc(C2CC2C(=O)O)cc1 (single isomer, unassigned; (+)) [Example 27] ?
8.40

Which pEC50 is listed for O=C(O)[C@@H]1C[C@H]1c1ccc(NCc2ccc(-c3ccccc3)cc2)cc1 (racemic) [Example 2] ?
7.60

Which pEC50 is listed for Cc1nc(Oc2ccc(F)c(F)c2)sc1CNc1ccc([C@@H]2C[C@H]2C(=O)O)cc1 (racemic) [Example 17] ?
6.60

Which pEC50 is listed for Cc1nc(-c2ccc(C(F)(F)F)cc2)sc1CNc1ccc([C@@H]2C[C@H]2C(=O)N(C)C)cc1 (racemic) [Example 46] ?
7.20

Which pEC50 is listed for O=C(NCC(F)(F)F)[C@@H]1C[C@H]1c1ccc(NCc2cccc(Oc3ccccc3)c2)cc1 (racemic) [Example 51] ?
7.30

Which pEC50 is listed for Cc1ccc(Oc2cccc(CNc3ccc(C4CC4C(=O)O)cc3)c2)cc1 (racemic) [Example 10] ?
8.00

Which pEC50 is listed for O=C(O)[C@@H]1C[C@H]1c1ccc(NCc2ccc(-c3ccccn3)cc2)cc1 (racemic) [Example 3] ?
5.80

Which pEC50 is listed for O=C(O)[C@H]1C[C@@H]1c1ccc(NCc2cccc(Oc3ccc([N+](=O)[O-])cc3)c2)cc1 (racemic) [Example 22, Trifluoroacetate] ?
6.50

Which pEC50 is listed for CC(C)(C)c1ccc(Oc2cccc(CNc3ccc(C4CC4C(=O)O)cc3)c2)cc1 (racemic) [Example 7] ?
7.70

Which pEC50 is listed for O=C(O)[C@@H]1C[C@H]1c1ccc(NCc2ccc(-c3ccc(Cl)cc3)o2)cc1 (racemic) [Example 15] ?
6.90

Which pEC50 is listed for O=C(O)[C@H]1C[C@@H]1c1ccc(NCc2cccc(Oc3cccc(C(F)(F)F)c3)c2)cc1 [Example 33] ?
7.60

Which pEC50 is listed for O=C(O)[C@@H]1C[C@H]1c1ccc(NCc2ccc(OCc3ccccc3)cc2)cc1 (racemic) [Example 16, trifluoroacetate] ?
7.20

Which pEC50 is listed for O=C(NCc1ccc(C(F)(F)F)cc1)[C@@H]1C[C@H]1c1ccc(NCc2cccc(Oc3ccccc3)c2)cc1 (racemic) [Example 49] ?
7.50

* * *

- Target Or System: GPR40 (Homo sapiens, UniProt O14842)
- Assay Name: GPR40 SAR Primary Assay (Elk-1/Gal4-luc+ reporter, luciferase activity)
- Condition Label: stable GPR40 Elk-1/Gal4-luc+ CHO cell line, 5 hours incubation
Counter-ions that a name gives are not always drawn.
Give pEC50 for every item shown.
# pEC50: negative log10 of molar concentration; output just the value

Which pEC50 is listed for Cc1nc(-c2ccc(C(F)(F)F)cc2)sc1CNc1ccc([C@@H]2C[C@H]2C(=O)NCc2ccncc2)cc1 (racemic) [Example 37] ?
8.00

Which pEC50 is listed for O=C(O)[C@H]1C[C@@H]1c1ccc(NCc2cccc(Sc3ccccc3)c2)cc1 (racemic) [Example 23, Trifluoroacetate] ?
7.50

Which pEC50 is listed for Cc1nc(-c2ccc(C(F)(F)F)cc2)sc1CNc1ccc([C@@H]2C[C@H]2C(N)=O)cc1 (single isomer, unassigned) [Example 39] ?
8.00

Which pEC50 is listed for O=C(O)C1CC1c1ccc(NCc2cccc(Oc3ccc(Cl)c(Cl)c3)c2)cc1 (racemic) [Example 4] ?
8.70

Which pEC50 is listed for O=C(O)[C@@H]1C[C@H]1c1ccc(NCc2cc(-c3ccc(C(F)(F)F)cc3)co2)cc1 (racemic) ?
6.80
